Each recorded value in this set is attributed to patent US20240043435A1.

- Target entity: TYK2-JH2 (aa 575-869, in-house) protein (Homo sapiens, UniProt P29597)
- Construct: TYK2-JH2 (aa 575-869, in-house) protein; made in house
- Sequence (P29597 575-869): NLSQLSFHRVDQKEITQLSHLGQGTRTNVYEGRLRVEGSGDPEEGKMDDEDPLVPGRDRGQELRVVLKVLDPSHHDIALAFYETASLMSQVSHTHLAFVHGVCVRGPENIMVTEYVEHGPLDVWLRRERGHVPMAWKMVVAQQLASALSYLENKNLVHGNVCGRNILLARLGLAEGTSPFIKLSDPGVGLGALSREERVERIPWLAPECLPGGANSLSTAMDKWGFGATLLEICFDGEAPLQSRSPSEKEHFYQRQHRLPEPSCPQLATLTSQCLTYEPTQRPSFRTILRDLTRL
- Measurement notes: TYK2-JH2 biochemical assay (HTRF probe displacement)
- Type: binding
- Cond: Biochemical assay; read-out: TYK2-JH2 IC50
Measured parameter: IC50
Provide a numeric answer, followed by its unit.

Molecule: COC(C)c1cc(Nc2cc(NC(C)=O)ncc2-c2ccc(N3C[C@@H](C)O[C@@H](C)C3)cn2)nc(S(C)(=O)=O)c1 (single isomer, unassigned) [Example C19]
Target entity: TYK2-JH2 (aa 575-869, in-house) protein (Homo sapiens, UniProt P29597)
IC50: 23 pM
//
Molecule: CC(=O)Nc1cc(Nc2cccc(S(N)(=O)=O)n2)c(-c2ccccn2)cn1 [Example B4]
Target entity: TYK2-JH2 (aa 575-869, in-house) protein (Homo sapiens, UniProt P29597)
IC50: 19 pM

Prompt line: Give reported IC50 value for CC(=O)Nc1cc(Nc2cccc(S(C)(=O)=O)c2)c(-c2cnc(C)cn2)cn1 [Example A4]
Response line: 520 pM

Prompt line: // fetch IC50 given entry CC(=O)Nc1cc(Nc2cc(C)cc(S(C)(=O)=O)n2)c(-c2ccc(N3C[C@@H](C)O[C@@H](C)C3)cn2)cn1 [Example C1]
Response line: 27 pM

Prompt line: Given the molecule CC(=O)Nc1cc(Nc2cc(OCCO)cc(S(C)(=O)=O)n2)c(-c2ccn(C(C)C)n2)cn1 [Example M28] , write its reported IC50.
Response line: 32 pM

Prompt line: Hello, please tell me recorded IC50 for this one: COCc1ccc(-c2cnc(NC(C)=O)cc2Nc2cc(OC(C)C)cc(S(C)(=O)=O)n2)nc1 [Example E4]
Response line: 22 pM

Prompt line: Find the measured IC50 of CC(=O)Nc1cc(Nc2cc(C)cc(S(C)(=O)=O)n2)c(-c2ccc(C(C)(C)O)cn2)cn1 [Example H9] and report it.
Response line: 16 pM
